- Measurement Description: Partition between n-octanol and saline
- Assay type: physicochemical
- Protocol Conditions: Table 2, relative to L-val-n1 = 1.0
For each entry below, report its rel. Pcoeff (a) value.
// return a plain number; no unit text

Exercise: I'd like to know its rel. Pcoeff (a). The compound in question is CCC(COCCC(=O)N[C@H](C(=O)N(C)O)C(C)C)(COCCC(=O)N[C@H](C(=O)N(C)O)C(C)C)COCCC(=O)N[C@H](C(=O)N(C)O)C(C)C
Key: 2.1

Exercise: // repeat for CCC(COCC(=O)N[C@@H](CC(C)C)C(=O)N(C)O)(COCC(=O)N[C@@H](CC(C)C)C(=O)N(C)O)COCC(=O)N[C@@H](CC(C)C)C(=O)N(C)O and report
Key: 17.0

Exercise: And for CC[C@H](C)[C@H](NC(=O)CCOCC(CC)(COCCC(=O)N[C@H](C(=O)N(C)O)[C@@H](C)CC)COCCC(=O)N[C@H](C(=O)N(C)O)[C@@H](C)CC)C(=O)N(C)O ?
Key: 8.2

Exercise: Another: CCC(COCC(=O)N[C@H](C(=O)N(C)O)C(C)C)(COCC(=O)N[C@H](C(=O)N(C)O)C(C)C)COCC(=O)N[C@H](C(=O)N(C)O)C(C)C
Key: 1.0

Exercise: Do the same for CCC(COCCC(=O)N[C@@H](C)C(=O)N(C)O)(COCCC(=O)N[C@@H](C)C(=O)N(C)O)COCCC(=O)N[C@@H](C)C(=O)N(C)O please
Key: 0.3

Exercise: Follow-up item: CCC(COCCC(=O)N1CCC[C@H]1C(=O)N(C)O)(COCCC(=O)N1CCC[C@H]1C(=O)N(C)O)COCCC(=O)N1CCC[C@H]1C(=O)N(C)O
Key: 0.4

###

- Measurement Description: Relative iron(III) binding efficiency by competition with EDTA
- Assay type: physicochemical
- Protocol Conditions: Table 2; relative to DFO = 1.16; 0.75 mM hydroxamate, 0.15 mM EDTA, 0.15 mM Fe3+ in aqueous methanol
We use 0.3 as the dividing line for rel. Fe binding (b): on or above the line is Criterion met, below is Criterion not met.

Exercise: Could you verify whether the entry CC[C@H](C)[C@H](NC(=O)CCOCC(CC)(COCCC(=O)N[C@H](C(=O)N(C)O)[C@@H](C)CC)COCCC(=O)N[C@H](C(=O)N(C)O)[C@@H](C)CC)C(=O)N(C)O [SF1-ileu] shows rel. Fe binding (b) of no less than 0.3?
Key: Criterion not met

Exercise: Also, CCC(COCCC(=O)N[C@H](C)C(=O)N(C)O)(COCCC(=O)N[C@H](C)C(=O)N(C)O)COCCC(=O)N[C@H](C)C(=O)N(C)O [SF1--D--ala] please.
Key: Criterion met

Exercise: Try the compound CCC(COCCC(=O)N1CCC[C@H]1C(=O)N(C)O)(COCCC(=O)N1CCC[C@H]1C(=O)N(C)O)COCCC(=O)N1CCC[C@H]1C(=O)N(C)O [SFI--pro]
Key: Criterion not met

Exercise: Also check CCC(COCCC(=O)N[C@@H](CC(C)C)C(=O)N(C)O)(COCCC(=O)N[C@@H](CC(C)C)C(=O)N(C)O)COCCC(=O)N[C@@H](CC(C)C)C(=O)N(C)O [SF1--L--leu]
Key: Criterion not met

Source listed as patent US5430058A.
